AC50, Thromboxane A2 receptor (Homo sapiens): measured values

CCCCOc1cc(C(=O)NCCN(CC)CC)c2ccccc2n1 [DIBUCAINE] : > 30 µM
CC(C)C(=O)OCC(=O)[C@@]12O[C@H](C3CCCCC3)O[C@@H]1C[C@H]1[C@@H]3CCC4=CC(=O)C=C[C@]4(C)[C@H]3[C@@H](O)C[C@@]12C [CICLESONIDE] : > 10 µM
CC(=O)OCC(=O)[C@@]12OC3(CCCC3)O[C@@H]1C[C@H]1[C@@H]3CCC4=CC(=O)C=C[C@]4(C)[C@@]3(F)[C@@H](O)C[C@@]12C [AMCINONIDE] : > 10 µM

Now for the compound whose AC50 we want.
Supply AC50 measured with Thromboxane A2 receptor (Homo sapiens) for NC(=O)C[S+]([O-])C(c1ccccc1)c1ccccc1 (centres undefined) [MODAFINIL] .
Sequence (P21731 whole entry): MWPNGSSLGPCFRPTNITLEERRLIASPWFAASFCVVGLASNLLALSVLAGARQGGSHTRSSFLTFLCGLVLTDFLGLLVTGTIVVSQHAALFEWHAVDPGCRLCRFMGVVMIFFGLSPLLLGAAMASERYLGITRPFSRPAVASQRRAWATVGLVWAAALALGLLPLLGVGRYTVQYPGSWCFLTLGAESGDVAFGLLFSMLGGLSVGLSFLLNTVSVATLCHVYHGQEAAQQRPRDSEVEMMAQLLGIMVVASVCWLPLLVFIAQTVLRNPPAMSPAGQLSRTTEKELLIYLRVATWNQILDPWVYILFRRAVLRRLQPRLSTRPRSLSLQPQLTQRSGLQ
> 30 µM
